Tested on: Human primary lung fibroblasts from IPF donors
procedureText: Fibroblast-to-Myofibroblast Transition (FMT) assay
Type: cell-based
statedConditions: Homo sapiens, Primary lung fibroblast; mean of three IPF donors; 1.25 ng/ml TGF-b1; 72 hours; read-out: αSMA inhibition IC50 (μM), Mean
measuredProperty: IC50 (µM)
Use µM as the unit, but write only the number.

NS(=O)(=O)c1ccc(-n2nc(CCCNC(=O)Nc3ccc(C(F)(F)F)cc3)cc2-c2ccccc2)cc1 ... 1.1

Now consider the entry below.
Data request: // returns reported IC50 for input COC(=O)c1ccc2c(c1)NC(=O)/C2=C(\Nc1ccc(N(C)C(=O)CN2CCN(C)CC2)cc1)c1ccccc1
Data returned: 0.5
